target-under-test: UniProtKB Q14994
Sequence (Q14994 109-348 isoform Q14994-2 limits assumed): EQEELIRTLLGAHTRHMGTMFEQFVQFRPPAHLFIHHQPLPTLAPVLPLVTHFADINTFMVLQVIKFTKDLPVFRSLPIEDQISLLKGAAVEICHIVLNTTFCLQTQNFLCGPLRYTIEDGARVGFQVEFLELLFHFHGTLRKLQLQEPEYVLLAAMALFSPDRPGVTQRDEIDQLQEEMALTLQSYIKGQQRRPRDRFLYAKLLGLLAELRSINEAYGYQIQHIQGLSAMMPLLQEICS
test-method-notes: CAR-mediated fluorescent PGC1α coactivator recruitment/repression assay
settings: ratio of IC50 values, comparator 11 (IC50 687 nM)
parameter: fold more potent than lead compound CINPA1 (11) (fold)

>>> value_reported("CCOC(=O)Nc1ccc2c(c1)N(C(=O)COC(C)(C)C)c1ccccc1CC2")
9.7
>>> value_reported("CCCN(CCC)CC(=O)N1c2ccccc2CCc2ccc(NC(=O)OCC)cc21")
3
>>> value_reported("CC(C)OC(=O)Nc1ccc2c(c1)N(C(=O)Cn1cccc1)c1ccccc1CC2")
32.8
>>> value_reported("CCOC(=O)Nc1ccc2c(c1)N(C(=O)Cn1cccc1)c1ccccc1CC2")
19
